Listing: Synergy of selected molecules
Experiment: RXR:RAR synergy expressed as fold induction; also: test concentration or dose not given here

line_notation | Synergy (fold)
CCOc1c(\C(C)=C/C=C/C(C)=C/C(=O)O)cc(C(C)(C)C)cc1C(C)(C)C | 3
CCCOc1c(\C(C)=C/C=C/C(C)=C/C(=O)O)cc(C(C)(C)CC)cc1C(C)(C)CC | 1
COc1c(\C(C)=C/C=C/C(C)=C/C(=O)O)cc(C(C)(C)C)cc1C(C)(C)C | 3

* * *

Assay: RXR:RAR synergy expressed as fold induction; also: test concentration or dose not given here
Listing: Synergy of selected compounds
outcome_measure: Synergy (fold)

line_notation | outcome_measure | value
C/C(=C/C=C/C(C)=C/C(=O)O)c1cc(C(C)(C)C)cc(C(C)(C)C)c1OCC(F)(F)F | Synergy | 1
CCCOc1c(\C(C)=C/C=C/C(C)=C/C(=O)O)cc(C(C)(C)C)cc1C(C)(C)C | Synergy | 1
C/C(=C/C=C/C(C)=C/C(=O)O)c1cc(C(C)C)cc(C(C)C)c1OCC(F)F | Synergy | 3
CCC(C)(C)c1cc(\C(C)=C/C=C/C(C)=C/C(=O)O)c(OCC(F)F)c(C(C)(C)CC)c1 | Synergy | 1
C/C(=C/C=C/C(C)=C/C(=O)O)c1cc(C(C)(C)C)cc(C(C)(C)C)c1OCC(F)F | Synergy | 2

* * *

Experiment: RXR:RAR synergy expressed as fold induction; also: test concentration or dose not given here

line_notation | Synergy
C/C(=C/C=C/C(C)=C/C(=O)O)c1cc(C(C)C)cc(C(C)C)c1OCCF | 4 fold
CCCCOc1c(\C(C)=C/C=C/C(C)=C/C(=O)O)cc(C(C)C)cc1C(C)C | 1 fold
CCCOc1c(\C(C)=C/C=C/C(C)=C/C(=O)O)cc(C(C)C)cc1C(C)C | 2 fold
CCOc1c(\C(C)=C/C=C/C(C)=C/C(=O)O)cc(C(C)(C)CC)cc1C(C)(C)CC | 2 fold
COc1c(\C(C)=C/C=C/C(C)=C/C(=O)O)cc(C(C)C)cc1C(C)C | 10 fold
C/C(=C/C=C/C(C)=C/C(=O)O)c1cc(C(C)C)cc(C(C)C)c1OCC(F)(F)F | 2 fold
CCOc1c(\C(C)=C/C=C/C(C)=C/C(=O)O)cc(C(C)C)cc1C(C)C | 5 fold
CCC(C)(C)c1cc(\C(C)=C/C=C/C(C)=C/C(=O)O)c(OC)c(C(C)(C)CC)c1 | 2 fold
Cc1cc2c(cc1C1(c3ccc(C(=O)O)cn3)CC1)C(C)(C)CCC2(C)C | 7 fold

* * *

Target: RXR alpha/PPAR gamma (Homo sapiens)
Sequence (P37231 whole entry): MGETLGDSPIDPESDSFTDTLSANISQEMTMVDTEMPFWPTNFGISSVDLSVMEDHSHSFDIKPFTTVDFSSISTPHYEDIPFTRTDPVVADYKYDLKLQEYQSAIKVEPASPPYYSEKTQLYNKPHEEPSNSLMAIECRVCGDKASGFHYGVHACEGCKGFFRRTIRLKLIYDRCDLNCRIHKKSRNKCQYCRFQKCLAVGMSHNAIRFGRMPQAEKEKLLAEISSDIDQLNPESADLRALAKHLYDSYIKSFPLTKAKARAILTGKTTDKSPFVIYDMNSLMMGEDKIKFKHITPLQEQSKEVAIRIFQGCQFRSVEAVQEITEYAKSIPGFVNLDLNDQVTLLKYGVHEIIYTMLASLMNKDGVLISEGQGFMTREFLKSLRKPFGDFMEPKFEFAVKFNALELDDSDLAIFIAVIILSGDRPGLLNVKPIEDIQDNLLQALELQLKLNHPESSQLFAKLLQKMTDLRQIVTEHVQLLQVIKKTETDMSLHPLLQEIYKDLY
Sequence (P19793 whole entry): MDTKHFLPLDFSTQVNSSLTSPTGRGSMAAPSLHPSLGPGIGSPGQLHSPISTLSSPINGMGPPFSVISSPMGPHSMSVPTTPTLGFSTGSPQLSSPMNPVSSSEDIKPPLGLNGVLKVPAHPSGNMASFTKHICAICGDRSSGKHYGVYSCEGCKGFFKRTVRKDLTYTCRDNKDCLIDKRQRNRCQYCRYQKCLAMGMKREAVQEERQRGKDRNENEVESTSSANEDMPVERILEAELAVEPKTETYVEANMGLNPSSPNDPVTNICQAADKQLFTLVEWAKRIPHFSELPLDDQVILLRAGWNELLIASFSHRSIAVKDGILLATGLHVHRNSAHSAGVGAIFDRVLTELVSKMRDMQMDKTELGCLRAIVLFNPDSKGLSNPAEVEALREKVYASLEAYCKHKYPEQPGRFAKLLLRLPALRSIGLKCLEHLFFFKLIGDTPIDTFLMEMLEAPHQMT
Listing: EC50 of selected molecules

line_notation | EC50
CCCOc1c(\C(C)=C/C=C/C(C)=C/C(=O)O)cc(C(C)(C)CC)cc1C(C)(C)CC | 19 nM
CCOc1c(\C(C)=C/C=C/C(C)=C/C(=O)O)cc(C(C)C)cc1C(C)C | 1 nM
COc1c(\C(C)=C/C=C/C(C)=C/C(=O)O)cc(C(C)C)cc1C(C)C | 8 nM
C/C(=C/C=C/C(C)=C/C(=O)O)c1cc(C(C)C)cc(C(C)C)c1OCCF | 4 nM
CCOc1c(\C(C)=C/C=C/C(C)=C/C(=O)O)cc(C(C)(C)CC)cc1C(C)(C)CC | 9 nM
